For each entry below, report its TGI value.
tested on: OVCAR-4 ovarian; assay: NCI tumour cell line growth inhibition, 48 h

{"Compound": "CCCCN(CCCC)CCCn1cnc2ncccc2c1=O", "Subject Of Test": "OVCAR-4 ovarian", "Quantity Name": "TGI", "Result": "> 100 µM"}
{"Compound": "O=[N+]([O-])c1ccc(Sc2ccncn2)c([N+](=O)[O-])c1", "Subject Of Test": "OVCAR-4 ovarian", "Quantity Name": "TGI", "Result": "11.3 µM"}
{"Compound": "COc1ccc(-c2cc(=O)c3c(O)cc(O)cc3o2)c(OC)c1OC", "Subject Of Test": "OVCAR-4 ovarian", "Quantity Name": "TGI", "Result": "> 100 µM"}

Respectfully, I request TGI for each entry included below.
1. COC(=O)C1C=CCON2CCc3c(n(S(=O)(=O)c4ccccc4)c4ccccc34)C12 (configuration not stated)
2. CCOCc1cc(=O)c2c(OC)cc3c(c2o1)CCC(C)(C)O3
3. COc1c2c(cc3c1C(=O)Cc1ccc4c(c1CN(C)CC3)OCO4)OCO2
4. CCCCc1ccc(C#CC#Cc2ccc(CCCC)s2)s1
5. CC(=O)O[C@H]1CC2C=CC3C(CCC31)O2 (some centres not stated)
6. CC[C@@]1(CCC(=O)NCCc2c[nH]c3ccccc23)CCC(=O)N2CCc3c([nH]c4ccccc34)[C@H]21
7. CCn1ccc(NS(=O)(=O)c2ccc(N)cc2)nc1=O
8. CCOC(=O)c1cc(C2CCN(Cc3ccccc3)C2=S)c(C(=O)C=[N+]=[N-])[nH]1 (configuration not stated)

RESULT:
> 31.6 µM
> 100 µM
> 100 µM
> 100 µM
> 100 µM
> 100 µM
> 100 µM
> 100 µM

Respectfully, I request TGI for each entry included below.
1. CC1C2CC=CC(=O)[C@@]2(C)CCC12OCCO2 (some centres not stated)
2. COC(=O)C1=NN2c3ccccc3CN([C@@H](C)c3ccccc3)C(=O)[C@@H]2[C@H]1c1ccccc1
3. O=c1c(Cl)cc2nc3ccccc3sc-2c1Cl
4. COc1ccc(/C(=N\Nc2ccccn2)c2ccccn2)cc1
5. O=C(O)Cc1cccc2c(=O)c3cccc([N+](=O)[O-])c3oc12
6. FC(F)(F)c1cc(Nc2ccc3cc(OCCCN4CCOCC4)ccc3n2)ccc1Cl
7. COc1cc(/C=C2/C(=O)N(C(=O)OCc3ccccc3)C(Cc3cc(OC)c(OC)c(C)c3OC)C(=O)N2Cc2ccccc2)c(OC)c(C)c1OC (configuration not stated)

RESULT:
["> 100 µM", "> 100 µM", "27.4 µM", "42.9 µM", "> 100 µM", "12.8 µM", "> 100 µM"]

* * *

system: CCRF-CEM leukemia; experiment: NCI tumour cell line growth inhibition, 48 h
For each entry below, report its TGI value.

{"Compound": "O=[N+]([O-])C(=C/c1cccs1)/C(=C\\c1cccs1)[N+](=O)[O-]", "Result": "0.276 µM"}
{"Compound": "NC(=O)C(=CNC(=S)Nc1cccc(C(F)(F)F)c1)C(N)=O", "Result": "> 100 µM"}
{"Compound": "Cc1nnc(Sc2nc(C#N)c(C#N)nc2Sc2nnc(C)s2)s1", "Result": "5.15 µM"}
{"Compound": "O=C1c2ccccc2C(=O)c2c(NCCCN3CCOCC3)ccc(NCCCN3CCOCC3)c21", "Result": "> 100 µM"}

Respectfully, I request TGI for each entry included below.
1. COc1ccc2nc(NC(=O)C(=O)NNC(=O)c3ccncc3)sc2c1
2. CCCCCCCCOC(=O)c1cc([N+](=O)[O-])c(Sc2ncnc3nc[nH]c23)c([N+](=O)[O-])c1
3. CC1(C)N=C(N)N=C(N)N1c1cccc(Br)c1
4. CCCCCCCC(=O)[O][Hg][CH2]C1COC([CH2][Hg][O]C(=O)CCCCCCC)CO1 (stereo not given)
5. C/C(=N/Nc1nc(C)cc(=O)[nH]1)C(=O)O
6. CC1CN=C(Nc2ccc(F)c(Cl)c2)S1 (stereo not given)

RESULT:
["> 100 µM", "2.68 µM", "> 100 µM", "> 100 µM", "> 100 µM", "> 100 µM"]

* * *

tested on: HCT-15 colon; assay: NCI tumour cell line growth inhibition, 48 h
For each entry below, report its TGI value.

{"Molecule": "Cn1c(=O)c(Cl)c(N=[N+]=[N-])c2ccccc21", "Subject Of Test": "HCT-15 colon", "Result": "> 100 µM"}
{"Molecule": "Cc1ccc(N2C(N)=C(C#N)C(C#N)(C#N)C2c2ccccc2)cc1 (centres undefined)", "Subject Of Test": "HCT-15 colon", "Result": "22.6 µM"}
{"Molecule": "COc1cc(/C=N/NC2=NCCCCN2)ccc1O", "Subject Of Test": "HCT-15 colon", "Result": "> 100 µM"}

Could you now look at the following molecule, please?
QUERY: Name the recorded TGI for NC(Cc1ccc(B(O)O)cc1)C(=O)NC(CO)CO (centres undefined) .
RESULT: > 100 µM

* * *

system: DMS 114 small cell lung; test: NCI tumour cell line growth inhibition, 48 h
Quantity Name: TGI

Example cases with answers are listed next.
{"Compound": "CCOC1CC2OC(=O)C1C=C2C(=O)OC (stereo not given)", "Subject Of Test": "DMS 114 small cell lung", "TGI": "54.9 µM"}
{"Compound": "O=c1ccnc2ccc3n[nH][nH]c3c12", "Subject Of Test": "DMS 114 small cell lung", "TGI": "> 100 µM"}
{"Compound": "COc1cccc(NC(=O)C(=O)C2C=CCS2(=O)=O)c1 (stereo not given)", "Subject Of Test": "DMS 114 small cell lung", "TGI": "> 100 µM"}
{"Compound": "O=C1C=CC2(C=C1)C[C@H](NC(=O)OCc1ccccc1)C(=O)O2", "Subject Of Test": "DMS 114 small cell lung", "TGI": "47.2 µM"}
{"Compound": "CC1CC[P+](c2ccccc2)(c2ccccc2)CC1", "Subject Of Test": "DMS 114 small cell lung", "TGI": "> 100 µM"}
{"Compound": "COc1ccc(-c2cc(=O)c3c(O)cc(O)cc3o2)c(OC)c1OC", "Subject Of Test": "DMS 114 small cell lung", "TGI": "> 100 µM"}
{"Compound": "Nc1ccc(Sc2c3ccccc3nc3ccccc23)cc1", "Subject Of Test": "DMS 114 small cell lung", "TGI": "38 µM"}
{"Compound": "c1ccc2c(NCCCCCCNc3cccc4ccccc34)cccc2c1", "Subject Of Test": "DMS 114 small cell lung", "TGI": "> 100 µM"}

Respectfully, I request TGI for each entry included below.
1. CCCN(CCC)C1=Nc2ccccc2-n2cnnc2C1
2. CC(=O)O[C@H]1CC2C=CC3C(CCC31)O2 (stereo not given in full)

RESULT:
> 100 µM
> 100 µM

* * *

For each entry below, report its TGI value.
system: DU-145 prostate; test: NCI tumour cell line growth inhibition, 48 h

Example cases with answers are listed next.
{"Molecule": "O=C(O[C@H]1CCN2C[C@H]3C[C@H](CN4C(=O)CCC[C@H]34)[C@@H]2C1)c1ccc(O)cc1", "Subject Of Test": "DU-145 prostate", "Result": "> 100 µM"}
{"Molecule": "O=[N+]([O-])C(=C/c1cccs1)/C(=C\\c1cccs1)[N+](=O)[O-]", "Subject Of Test": "DU-145 prostate", "Result": "3.53 µM"}

Respectfully, I request TGI for each entry included below.
1. COc1cc(/C=N/NC2=NCCCCN2)ccc1O
2. O=C1O/C(=C\c2ccc(O)cc2)C(c2ccc(O)c(Cl)c2)=C1Cl
3. CCCCc1c2c(c(C)c3c1C(=O)OC3)Oc1ccccc1O2
4. CCCCOC(=O)c1cc(C(=CCC[C@H]2CC[C@@]3(C)[C@@H](CC[C@@H]4[C@@H]3CC[C@]3(C)[C@@H](C(C)CCCC(C)C)CC[C@@H]43)C2)c2cc(Cl)c(O)c(C(=O)OCCCC)c2)cc(Cl)c1O (stereo not given in full)
5. CC1(C)C2CCC(O)(C2)C1N (stereo not given)
6. O=c1oc2ccc([N+](=O)[O-])cc2cc1Br

RESULT:
["> 100 µM", "> 100 µM", "> 43.8 µM", "> 50 µM", "> 100 µM", "> 100 µM"]

Respectfully, I request TGI for each entry included below.
1. COc1cc(/C=C/C(=O)c2c(C)nc3ccccc3c2C)ccc1OCCCN1CCN(C(=O)c2ccco2)CC1
2. N#Cc1c(O)c2ccccc2[nH]c1=O

RESULT:
["21.4 µM", "> 100 µM"]

* * *

tested on: SK-MEL-5 melanoma; test: NCI tumour cell line growth inhibition, 48 h
Quantity Name: log10 TGI (log10 of the value in µM)
Please interpret these as log10 of TGI where TGI is in µM.

{"Chemical Smiles": "CN1CCN(Cc2ccc(NC(=O)c3cncc(C#Cc4cnc(N)c5cnccc45)c3)cc2C(F)(F)F)CC1", "Result": -0.02}
{"Chemical Smiles": "COc1cccc(-c2c(-c3ccccc3)[nH]c(C)c2C(=O)ONC(=O)c2ccccc2)c1", "Result": 1.38}
{"Chemical Smiles": "CCCCCCCCOC(=O)c1cc([N+](=O)[O-])c(Sc2ncnc3nc[nH]c23)c([N+](=O)[O-])c1", "Result": 1.26}
{"Chemical Smiles": "FC(F)(F)c1cc(Nc2ccc3cc(OCCCN4CCOCC4)ccc3n2)ccc1Cl", "Result": 0.50}
{"Chemical Smiles": "C=CCc1c(O)c(C(=O)/C=C/c2ccccc2)c(OC)c2ccoc12", "Result": 1.04}

Respectfully, I request log10 TGI for each entry included below.
1. COCCn1cc(-c2csc(-c3c[nH]c4ccc(Br)cc34)n2)c2cccnc21
2. CN(C)c1ccc(/C=C/c2cc(-c3ccccc3)[n+](C)n2-c2ccccc2)cc1
3. CCC[CH2][Pb]([Cl])([CH2]CCC)[CH2]CCC

RESULT:
[1.07, -0.28, -0.89]
